Values were extracted from ChEMBL document CHEMBL3639260.

# target_under_test: Xanthine dehydrogenase/oxidase (Bos taurus, UniProt P80457)
# Sequence (P80457 whole entry): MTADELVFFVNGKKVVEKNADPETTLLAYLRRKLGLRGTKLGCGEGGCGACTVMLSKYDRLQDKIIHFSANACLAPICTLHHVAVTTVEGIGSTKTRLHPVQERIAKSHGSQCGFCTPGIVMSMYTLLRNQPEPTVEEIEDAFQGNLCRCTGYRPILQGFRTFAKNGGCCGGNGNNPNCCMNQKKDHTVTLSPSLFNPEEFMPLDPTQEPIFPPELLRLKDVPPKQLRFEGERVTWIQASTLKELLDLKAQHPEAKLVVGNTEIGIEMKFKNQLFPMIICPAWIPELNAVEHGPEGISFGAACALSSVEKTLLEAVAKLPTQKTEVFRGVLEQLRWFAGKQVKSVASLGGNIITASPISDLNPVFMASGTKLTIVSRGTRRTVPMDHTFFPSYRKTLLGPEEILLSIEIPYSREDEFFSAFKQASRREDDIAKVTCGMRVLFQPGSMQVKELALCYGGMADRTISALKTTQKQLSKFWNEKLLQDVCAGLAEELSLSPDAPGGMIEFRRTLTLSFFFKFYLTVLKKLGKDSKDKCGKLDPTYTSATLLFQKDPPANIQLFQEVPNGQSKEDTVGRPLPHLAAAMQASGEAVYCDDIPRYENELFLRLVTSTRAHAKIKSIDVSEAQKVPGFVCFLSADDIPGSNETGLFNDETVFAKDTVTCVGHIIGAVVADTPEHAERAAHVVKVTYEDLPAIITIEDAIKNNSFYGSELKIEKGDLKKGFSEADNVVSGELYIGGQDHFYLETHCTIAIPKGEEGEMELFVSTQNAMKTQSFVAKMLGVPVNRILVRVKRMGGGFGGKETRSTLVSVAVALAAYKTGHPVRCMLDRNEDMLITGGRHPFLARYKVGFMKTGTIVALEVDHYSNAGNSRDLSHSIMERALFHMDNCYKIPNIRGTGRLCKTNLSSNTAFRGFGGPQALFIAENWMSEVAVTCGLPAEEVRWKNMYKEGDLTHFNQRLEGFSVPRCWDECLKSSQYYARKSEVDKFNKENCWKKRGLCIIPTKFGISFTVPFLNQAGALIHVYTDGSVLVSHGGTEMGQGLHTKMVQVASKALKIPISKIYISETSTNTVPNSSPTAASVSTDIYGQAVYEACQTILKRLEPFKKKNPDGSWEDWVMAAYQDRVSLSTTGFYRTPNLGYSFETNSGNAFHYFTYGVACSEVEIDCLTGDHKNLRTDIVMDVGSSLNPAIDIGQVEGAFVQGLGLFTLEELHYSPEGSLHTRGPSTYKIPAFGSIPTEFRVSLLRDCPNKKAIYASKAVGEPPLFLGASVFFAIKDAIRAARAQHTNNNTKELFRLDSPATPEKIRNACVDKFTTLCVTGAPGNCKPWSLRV
# measurement_description: Inhibition Assay: Xanthine oxidase (from bovine milk, Sigma) was prepared with phosphate-buffered saline (PBS) at 0.02 units/mL, and then the solution was added to 96 well plates at 50 μL/well. In addition, test compounds diluted with PBS were added at 50 μL/well. Xanthine (Wako) at 200 μM prepared with PBS was added at 100 μL/well, and the reaction was conducted for 10 minutes at room temperature. Absorbance at 290 nm was measured using a microplate reader SpectraMax Plus 384 (Molecular device). The absorbance under a condition without xanthine is 0%, and control without test compounds is 100%.

{"smiles_text": "N#Cc1cn(-c2ccc(C(=O)O)cc2)cc1-c1ccc(OCCCO)cc1", "IC50 / µM": 0.0632}
